Test system: HIV-1 NL4-3 Nanoluc-sec
Assay type: cell-based
appliedConditions: CC50 (MT4) / EC50 (HIV-1 in MT4)
reportedMetric: SI, selectivity index, calculated as CC50/EC50

Measured SI, selectivity index, calculated as CC50/EC50 of CC1=C[C@@H]2C(=O)[C@]3(C=C(C)[C@H](O)[C@@]3(O)[C@@H]1OC(=O)/C=C/c1ccccc1)[C@H](C)C[C@@H]1[C@H]2C1(C)C [Compound 13b, 5-(trans-cinnamoyl)-20-deoxyingenol] : >22

Measured SI, selectivity index, calculated as CC50/EC50 of CC1=C[C@@H]2C(=O)[C@]3(C=C(C)[C@H](OC(=O)c4ccccc4)[C@@]3(O)[C@@H]1O)[C@H](C)C[C@@H]1[C@H]2C1(C)C [Compound 2, 3-O-benzoyl-20-deoxyingenol] : >302

Measured SI, selectivity index, calculated as CC50/EC50 of COc1ccc(C(=O)O[C@@H]2C(C)=C[C@@H]3C(=O)[C@]4(C=C(C)[C@H](O)[C@@]24O)[C@H](C)C[C@@H]2[C@H]3C2(C)C)cc1 [Compound 12b, 5-(p-methoxybenzoyl)-20-deoxyingenol] : >20

Measured SI, selectivity index, calculated as CC50/EC50 of C/C=C/C(=O)O[C@H]1C(C)=C[C@]23C(=O)[C@@H](C=C(C)[C@@H](O)[C@]12O)[C@H]1[C@@H](C[C@H]3C)C1(C)C [Compound 15a, 3-Crotonoyl-20-deoxyingenol] : >17

Measured SI, selectivity index, calculated as CC50/EC50 of CCCCCCCCCCCC(=O)O[C@@]12C[C@@H](C)[C@]34C=C(C)[C@H](OC(=O)C(C)C(C)C)[C@@]3(O)[C@H](O)C(CO)=C[C@H](C4=O)[C@@H]1C2(C)C (some centres unmarked) [Compound 5] : >7500
